Just for reference, ChEMBL document CHEMBL1154389 is where these values come from.

For each record, write down the corresponding pIC50.
Interpret pIC50 as the negative base-10 log of the concentration measured in mol/L.

Prompt line: What reported pIC50 corresponds to Cc1ccc(NC(=O)c2cccc(C(F)(F)F)c2)cc1Nc1nc2ccccc2n1-c1cc(NCCCCN)ncn1 on Tyrosine-protein kinase HCK (Homo sapiens, UniProt P08631)?
Response line: 6.46

Prompt line: Please tell me: pIC50 of Cc1ccc(NC(=O)c2cc(C(C)(C)C)nn2C)cc1Nc1nc2ccccc2n1-c1cc(N)ncn1 , system Tyrosine-protein kinase HCK (Homo sapiens, UniProt P08631)?
Response line: 6.07

Prompt line: Give the reported pIC50 for Cc1ccc(C(=O)Nc2cccc(C(F)(F)F)c2)cc1Nc1nc2ccccc2n1-c1cc(NCCCCN(C)C)ncn1 (system: Tyrosine-protein kinase HCK (Homo sapiens, UniProt P08631)).
Sequence (P08631 whole entry): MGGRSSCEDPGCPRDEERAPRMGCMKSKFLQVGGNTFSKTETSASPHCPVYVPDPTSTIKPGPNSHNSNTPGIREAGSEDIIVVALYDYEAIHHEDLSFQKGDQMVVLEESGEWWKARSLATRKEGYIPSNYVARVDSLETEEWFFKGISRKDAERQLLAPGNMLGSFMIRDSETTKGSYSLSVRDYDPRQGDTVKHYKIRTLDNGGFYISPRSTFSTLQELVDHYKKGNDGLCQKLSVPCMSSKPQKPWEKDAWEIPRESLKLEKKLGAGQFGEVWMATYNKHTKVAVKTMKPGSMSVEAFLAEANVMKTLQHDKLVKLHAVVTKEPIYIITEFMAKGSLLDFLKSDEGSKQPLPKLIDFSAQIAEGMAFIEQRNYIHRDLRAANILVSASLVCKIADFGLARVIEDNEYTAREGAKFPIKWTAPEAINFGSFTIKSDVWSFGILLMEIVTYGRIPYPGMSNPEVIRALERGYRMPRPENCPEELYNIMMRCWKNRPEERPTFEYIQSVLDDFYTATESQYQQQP
Response line: 7.25

Prompt line: Can you look up pIC50 on Tyrosine-protein kinase HCK (Homo sapiens, UniProt P08631) for Cc1ccc(C(=O)Nc2cccc(C(F)(F)F)c2)cc1Nc1nc2ccccc2n1-c1cc(NCCN2CCN(C)CC2)ncn1 ?
Response line: 6.89

Prompt line: Requested read-out pIC50, target or system Tyrosine-protein kinase HCK (Homo sapiens, UniProt P08631), entry Cc1ccc(NC(=O)c2cc(Cl)cc(Cl)c2)cc1Nc1nc2ccccc2n1-c1cc(N)ncn1
Response line: 6.92

Prompt line: What pIC50 appears in the records for this compound with Tyrosine-protein kinase HCK (Homo sapiens, UniProt P08631)? Cc1ccc(C(=O)Nc2cccc(C(C)C)c2)cc1Nc1nc2ccccc2n1-c1cc(N)ncn1
Response line: 6.82

Prompt line: // lookup pIC50 | system=Tyrosine-protein kinase HCK (Homo sapiens, UniProt P08631) | key= Cc1ccc(NC(=O)c2cc(C3CC3)n[nH]2)cc1Nc1nc2ccccc2n1-c1cc(N)ncn1
Response line: 6.35

Prompt line: Could you share what pIC50 was measured for Cc1ccc(C(=O)Nc2cccc(C(F)(F)F)c2)cc1Nc1nc2ccccc2n1-c1ncnc(NCCCN2CCN(C)CC2)n1 , tested on Tyrosine-protein kinase HCK (Homo sapiens, UniProt P08631)?
Response line: 7.27
